- System Name: 5FW-BPTF bromodomain (Homo sapiens)
- Protocol Notes: SPR, 5FW-labeled His9-BPTF on NTA chip, steady-state
Measure Name: Kd (nM)
Give bare numbers, in nM.

**Q:** Entry under review: CN(C)CCCOc1ccc(-c2cc(NCCCn3cccn3)nc(S(C)(=O)=O)n2)cc1 [compound 2, TP-238] . Reported Kd?
**A:** 250
